Target Of Assay: Aβ42 (Homo sapiens, UniProt P05067)
Sequence (P05067 672-713): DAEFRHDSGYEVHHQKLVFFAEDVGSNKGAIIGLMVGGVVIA
Measurement Notes: Th-T (thioflavin-T) assay of Aβ42 aggregation
Assay type: biochemical
Condition Set: Supplementary Fig. 47; reading M145
// classify: if (Th-T fluorescence, mean of three wells < 3) t else f

1. C=C1CCC2C(C)(CCC=C(C)C)C(O)CCC2(C)C1Cc1c(O)c(C)c(C)oc1=O (stereo not shown) [Compound 4]	t
2. C=C1CCC2C(C)(CCC=C(C)C)C(O)CCC2(C)C1Cc1c(O)c(C)c(C)oc1=O (stereo not shown) [Compound 9, higginsianin B]	t
3. C=C1CCC2C(C)(CC(=O)C=C(C)C)C(O)CCC2(C)C1Cc1c(OC)oc(CO)c(C)c1=O (stereo not shown)	f

## Input In the record for C=C1CC[C@H]2[C@]3(C)C[C@@H](C=C(C)C)O[C@H]3CC[C@]2(C)[C@@H]1Cc1c(O)c(C)c(C)oc1=O , is Th-T fluorescence, mean of three wells less than 3?
## Output t

## Input In the record for C=C1CCC2C(C)(CCC=C(C)C)C(O)CCC2(C)C1Cc1c(OC)oc(C)c(C)c1=O (stereo not shown) [Compound 11] , is Th-T fluorescence, mean of three wells less than 3?
## Output f

## Input In the record for C=C1CCC2C(C)(CCC=C(C)C)C(O)CCC2(C)C1Cc1c(OC)oc(C)c(C)c1=O (stereo not shown) [Compound 15, viridoxin A hydrolysate] , is Th-T fluorescence, mean of three wells less than 3?
## Output f

## Input In the record for C=C1CC[C@H]2[C@]3(C)C[C@H](C=C(C)C)O[C@H]3CC[C@]2(C)[C@@H]1Cc1c(OC)oc(C)c(C)c1=O , is Th-T fluorescence, mean of three wells less than 3?
## Output f

## Input In the record for C=C1CCC2C(C)(CC(=O)C=C(C)C)C(O)CCC2(C)C1Cc1c(O)c(C)c(C)oc1=O (stereo not shown) , is Th-T fluorescence, mean of three wells less than 3?
## Output f

## Input In the record for C=C1CCC2C3(C)CC(C=C(C)C)OC3CCC2(C)C1Cc1c(OC)oc(C)c(C)c1=O (stereo not shown) , is Th-T fluorescence, mean of three wells less than 3?
## Output f

## Input In the record for C=C1CCC2C(C)(CCC=C(C)C)C(=O)CCC2(C)C1Cc1c(O)c(C)c(C)oc1=O (stereo not shown) , is Th-T fluorescence, mean of three wells less than 3?
## Output t

## Input In the record for C=C1CC[C@H]2[C@]3(C)C[C@H](C=C(C)C)O[C@H]3CC[C@]2(C)[C@@H]1Cc1c(OC)oc(CO)c(C)c1=O , is Th-T fluorescence, mean of three wells less than 3?
## Output f

## Input In the record for C=C1CC[C@H]2[C@]3(C)C[C@@H](C=C(C)C)O[C@H]3CC[C@]2(C)[C@@H]1Cc1c(OC)oc(CO)c(C)c1=O , is Th-T fluorescence, mean of three wells less than 3?
## Output f

## Input In the record for C=C1CCC2C(C)(CC(=O)C=C(C)C)C(O)CCC2(C)C1Cc1c(OC)oc(C)c(C)c1=O (stereo not shown) , is Th-T fluorescence, mean of three wells less than 3?
## Output f

* * *

Target Of Assay: Aβ42 (Homo sapiens)
Measurement Notes: Th-T (thioflavin-T) assay of Aβ42 aggregation
Type: biochemical
Condition Set: concentration 20, unit not given; time-course reading M142
Consider the following compounds; for each one, report its Th-T fluorescence of Aβ42 with compound, mean of three wells (Fig. 7a source data).
One number for each entry.

Examples from the recorded data:
1. C=C1CCC2C(C)(CCC=C(C)C)C(O)CCC2(C)C1Cc1c(OC)oc(CO)c(C(=O)OC)c1=O (centres unmarked)	1.024
2. C=C1CCC2C(C)(CCC=C(C)C)C(O)CCC2(C)C1Cc1c(OC)oc(CO)c(C)c1=O (centres unmarked)	2.239
3. C=C1CC[C@@H]2[C@](C)(CC[C@H]3O[C@H](C=C(C)C)C[C@@]23C)[C@@H]1Cc1c(OC)oc(CO)c(C(=O)OC)c1=O	0.9675
4. C=C1CCC2C(C)(CCC=C(C)C)C(O)CCC2(C)C1Cc1c(OC)oc(C)c(C(=O)OC)c1=O (centres unmarked)	1.586

Okay, next one:
## Input Report the value of Th-T fluorescence of Aβ42 with compound, mean of three wells (Fig. 7a source data) obtained on Aβ42 (Homo sapiens) for C=C1CC[C@@H]2[C@](C)(CC[C@H]3O[C@H](C=C(C)C)C[C@@]23C)[C@@H]1Cc1c(OC)oc(CO)c(C)c1=O .
## Output 3.019

* * *

Target Of Assay: Aβ42 (Homo sapiens, UniProt P05067)
Measurement Notes: Th-T (thioflavin-T) assay of Aβ42 aggregation
Assay type: biochemical
Condition Set: Aβ42 aggregation time course, reading M129
Experimental Endpoint: Th-T fluorescence, mean of three wells
Numbers only.

Examples from the recorded data:
1) C=C1CC[C@H]2[C@]3(C)C[C@@H](C=C(C)C)O[C@H]3CC[C@]2(C)[C@@H]1Cc1c(O)c(C)c(C)oc1=O [Compound 5, subglutinol A]	2.642
2) C=C1CCC2C(C)(CCC=C(C)C)C(O)CCC2(C)C1Cc1c(OC)oc(CO)c(C)c1=O (stereo not drawn) [Compound 12]	2.023
3) C=C1CCC2C(C)(CCC=C(C)C)C(O)CCC2(C)C1Cc1c(OC)oc(C)c(C)c1=O (stereo not drawn) [Compound 11]	3.334

List Th-T fluorescence, mean of three wells for every entry below, keeping the order given.
1. C=C1CCC2C(C)(CCC=C(C)C)C(O)CCC2(C)C1Cc1c(O)c(C)c(C)oc1=O (stereo not drawn) [Compound 9, higginsianin B]
2. C=C1CC[C@H]2[C@]3(C)C[C@H](C=C(C)C)O[C@H]3CC[C@]2(C)[C@@H]1Cc1c(O)c(C)c(C)oc1=O [Compound 6, subglutinol B]

## Output
1. 2.788
2. 3.02

## Input Report the value of Th-T fluorescence, mean of three wells obtained on Aβ42 (Homo sapiens, UniProt P05067) for C=C1CC[C@@H]2[C@](C)(CC[C@H]3O[C@H](C=C(C)C)C[C@@]23C)[C@@H]1Cc1c(O)c(C)c(C)oc1=O [Compound 10, higginsianin A] .
## Output 2.997

* * *

Consider the following compounds; for each one, report its Th-T fluorescence, mean of three wells (Fig. 7a).
Target Of Assay: UniProt P05067
Measurement Notes: Th-T (thioflavin-T) assay of Aβ42 aggregation
Type: biochemical
Condition Set: reading M119; compound at 20 (head suffix _20)
Numbers only.

1) C=C1CC[C@@H]2[C@](C)(CC[C@H]3O[C@H](C=C(C)C)C[C@@]23C)[C@@H]1Cc1c(OC)oc(CO)c(C)c1=O	3.1938
2) C=C1CC[C@@H]2[C@](C)(CC[C@H]3O[C@H](C=C(C)C)C[C@@]23C)[C@@H]1Cc1c(OC)oc(CO)c(C(=O)OC)c1=O	0.9445
3) C=C1CCC2C(C)(CCC=C(C)C)C(O)CCC2(C)C1Cc1c(OC)oc(C)c(C(=O)OC)c1=O (centres unmarked)	1.645

List Th-T fluorescence, mean of three wells (Fig. 7a) for every entry below, keeping the order given.
1. C=C1CCC2C(C)(CCC=C(C)C)C(O)CCC2(C)C1Cc1c(OC)oc(CO)c(C)c1=O (centres unmarked)
2. C=C1CCC2C(C)(CCC=C(C)C)C(O)CCC2(C)C1Cc1c(OC)oc(CO)c(C(=O)OC)c1=O (centres unmarked)

## Output
[2.161, 1.035]

* * *

Target Of Assay: Aβ42 (Homo sapiens)
Measurement Notes: Th-T (thioflavin-T) assay of Aβ42 aggregation
Type: biochemical
Condition Set: column suffix _20; reading M95
Experimental Endpoint: Fig. 7a Th-T reading, mean of three wells
Give bare numbers.

Examples from the recorded data:
1) C=C1CC[C@@H]2[C@](C)(CC[C@H]3O[C@H](C=C(C)C)C[C@@]23C)[C@@H]1Cc1c(OC)oc(CO)c(C(=O)OC)c1=O	0.8786
2) C=C1CCC2C(C)(CCC=C(C)C)C(O)CCC2(C)C1Cc1c(OC)oc(CO)c(C)c1=O (centres unmarked)	2.102
3) C=C1CC[C@@H]2[C@](C)(CC[C@H]3O[C@H](C=C(C)C)C[C@@]23C)[C@@H]1Cc1c(OC)oc(CO)c(C)c1=O	3.309
4) C=C1CCC2C(C)(CCC=C(C)C)C(O)CCC2(C)C1Cc1c(OC)oc(C)c(C(=O)OC)c1=O (centres unmarked)	1.783

Okay, next one:
## Input Report the value of Fig. 7a Th-T reading, mean of three wells obtained on Aβ42 (Homo sapiens) for C=C1CCC2C(C)(CCC=C(C)C)C(O)CCC2(C)C1Cc1c(OC)oc(CO)c(C(=O)OC)c1=O (centres unmarked) .
## Output 1.054
